Glucocorticoid Receptor (GR) (Homo sapiens) data, read-out IC50
Sequence (P04150 whole entry): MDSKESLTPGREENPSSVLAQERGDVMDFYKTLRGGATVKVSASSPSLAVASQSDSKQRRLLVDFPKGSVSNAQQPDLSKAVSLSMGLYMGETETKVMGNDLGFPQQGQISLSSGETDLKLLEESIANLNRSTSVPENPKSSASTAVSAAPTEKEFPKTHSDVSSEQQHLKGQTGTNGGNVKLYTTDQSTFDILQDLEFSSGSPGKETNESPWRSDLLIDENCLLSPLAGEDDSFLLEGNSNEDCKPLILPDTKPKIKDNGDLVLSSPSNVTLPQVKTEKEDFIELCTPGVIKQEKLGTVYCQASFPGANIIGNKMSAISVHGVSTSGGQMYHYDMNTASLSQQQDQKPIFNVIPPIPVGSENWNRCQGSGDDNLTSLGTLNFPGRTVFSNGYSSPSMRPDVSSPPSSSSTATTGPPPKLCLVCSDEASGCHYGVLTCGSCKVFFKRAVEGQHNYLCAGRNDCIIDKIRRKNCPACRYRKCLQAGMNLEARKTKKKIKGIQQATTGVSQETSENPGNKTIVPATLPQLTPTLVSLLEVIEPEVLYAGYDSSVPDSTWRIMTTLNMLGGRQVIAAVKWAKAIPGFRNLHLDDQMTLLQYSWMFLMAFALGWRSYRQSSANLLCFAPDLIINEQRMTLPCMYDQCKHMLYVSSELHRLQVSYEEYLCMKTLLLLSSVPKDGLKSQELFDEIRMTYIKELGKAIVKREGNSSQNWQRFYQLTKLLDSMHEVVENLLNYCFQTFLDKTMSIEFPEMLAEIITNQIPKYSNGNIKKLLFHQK

Record Cc1cc(C#N)ccc1C1SC(C)CNc2c1c(C)nn2C (stereo not shown) ; system Glucocorticoid Receptor (GR) (Homo sapiens); IC50 = 1000 to 10000 nM

Record Cc1nn(C)c2c1C(c1ccc(Cl)cc1Cl)SCCN2 (stereo not shown) has Glucocorticoid Receptor (GR) (Homo sapiens) IC50 equal to 100 to 1000 nM

So the reported IC50 for CC1=Nc2c(c(-c3ccccn3)nn2C)C(c2ccc(Cl)cc2C)SC1 (stereo not shown) , on Glucocorticoid Receptor (GR) (Homo sapiens), turned out to be 100 to 1000 nM

Fill in: Glucocorticoid Receptor (GR) (Homo sapiens) IC50 for COc1ccnc(-c2nn(C)c3c2C(c2ccc(Cl)cc2C)SCCN3)c1 (stereo not shown) = < 100 nM

Bench note, Glucocorticoid Receptor (GR) (Homo sapiens): Cn1nc(-c2ccccn2)c2c1NCCSC2c1ccc(-c2ccc(S(C)(=O)=O)nc2)cc1Cl (stereo not shown) , IC50 reads 100 to 1000 nM

Form field, IC50 with Glucocorticoid Receptor (GR) (Homo sapiens), item Cn1nc(-c2ccc(Br)cn2)c2c1NCCSC2c1ccc(Cl)cc1Cl (stereo not shown) : < 100 nM

Record COC(=O)c1cc(C2SCCNc3c2c(-c2ccccn2)nn3C)c(C)s1 (stereo not shown) / Glucocorticoid Receptor (GR) (Homo sapiens), IC50 recorded as 1000 to 10000 nM

Sample COC(=O)c1ccc(C2SC(C)(C)CNc3c2c(C)nn3C)c(C)c1 (stereo not shown) , system: Glucocorticoid Receptor (GR) (Homo sapiens). Its IC50 is 100 to 1000 nM

Log: Glucocorticoid Receptor (GR) (Homo sapiens), compound Cn1nc(-c2ccccn2)c2c1NCCS(=O)(=O)C2c1ccc(Cl)cc1Cl (stereo not shown) , IC50 = 100 to 1000 nM

Reading of IC50 for CCn1nc(-c2ccccn2)c2c1NCCSC2c1ccc(C(=O)Nc2nncs2)cc1C (stereo not shown) with Glucocorticoid Receptor (GR) (Homo sapiens): < 100 nM

With Glucocorticoid Receptor (GR) (Homo sapiens) as the test system, Cc1ncccc1NC(=O)c1ccc(C2SC(C)(C)CNc3c2c(C)nn3C)c(Cl)c1 (single isomer, unassigned) [M.8] showed IC50 of 1000 to 10000 nM

Assay Glucocorticoid Receptor (GR) (Homo sapiens), sample CCn1nc(-c2ccccn2)c2c1NCCSC2c1ccc(C(=O)Nc2cccnc2C)cc1C (single isomer, unassigned) [M.62] , IC50 read: < 100 nM

Bench note, Glucocorticoid Receptor (GR) (Homo sapiens): entry Cc1cc(C(=O)Nc2cccnc2C)ccc1[C@@H]1SC[C@@H](C)Nc2c1c(-c1ccncn1)nn2C (single isomer, unassigned) , its IC50 = < 100 nM

Record Cc1cc(O)ccc1C1SCCNc2c1c(-c1ccccn1)nn2C (stereo not shown) ; system Glucocorticoid Receptor (GR) (Homo sapiens); IC50 = < 100 nM

Entry Cc1cc(Cl)ccc1C1SCCNc2nn(C)cc21 (stereo not shown) under Glucocorticoid Receptor (GR) (Homo sapiens) had IC50 of 1000 to 10000 nM

Glucocorticoid Receptor (GR) (Homo sapiens) data for Cn1nc(C(F)(F)F)c2c1NCCSC2c1ccc(Cl)cc1Cl (stereo not shown) ; its IC50: 1000 to 10000 nM
